- Test system: Aspergillus fumigatus B42928
- Procedure Text: Antifungal activity in vitro (resazurin susceptibility screen), Inf. E
- Assay type: cell-based
- Experimental Parameters: Aspergillus fumigatus B42928; 27 °C, 48 hours, resa time 17 hours
Entries and their measured Inf. E pIC50 follow.

Inf. E pIC50 lookup needed for Cl.OCCc1ccc(C2NCc3c(ccc(Cl)c3Cl)-n3cccc32)cc1 (stereo not shown) , thanks.
4.4

Which measured Inf. E pIC50 value corresponds to CC(=O)c1ccc(C2=NCc3c(ccc(Cl)c3Cl)-n3cccc32)cc1.Cl ?
<4.2

Suppose we examine the compound CS(=O)(=O)c1cccc(C2=NCc3c(Cl)cccc3-n3cccc32)c1 ; what Inf. E pIC50 value has been reported?
<4.2

Would you mind telling me what Inf. E pIC50 value was observed for Cl.OCCc1ccc(C2NCc3c(Cl)ccc(Cl)c3-n3cccc32)cc1 (stereo not shown) ?
<4.2

Return reported Inf. E pIC50; argument: CC(=O)c1cc(C2NCc3c(Cl)cccc3-n3cccc32)ccc1F.Cl (stereo not shown)
<4.2

May I ask what Inf. E pIC50 has been recorded for Cl.OCCc1ccc(C2NCc3cc(Cl)cc(Cl)c3-n3cccc32)cc1 (stereo not shown) ?
<4.2

Value lookup for Inf. E pIC50; key = CC(=O)c1ccc(C2NCc3c(ccc(Cl)c3Cl)-n3cccc32)cc1.Cl (stereo not shown)
<4.2

Give the measured Inf. E pIC50 of Cl.OCCc1ccc(C2NCc3c(Cl)cccc3-n3cccc32)cc1 (stereo not shown) .
<4.2

* * *

- System Tested: CYP2D6 (Homo sapiens)
- Sequence (P10635 whole entry): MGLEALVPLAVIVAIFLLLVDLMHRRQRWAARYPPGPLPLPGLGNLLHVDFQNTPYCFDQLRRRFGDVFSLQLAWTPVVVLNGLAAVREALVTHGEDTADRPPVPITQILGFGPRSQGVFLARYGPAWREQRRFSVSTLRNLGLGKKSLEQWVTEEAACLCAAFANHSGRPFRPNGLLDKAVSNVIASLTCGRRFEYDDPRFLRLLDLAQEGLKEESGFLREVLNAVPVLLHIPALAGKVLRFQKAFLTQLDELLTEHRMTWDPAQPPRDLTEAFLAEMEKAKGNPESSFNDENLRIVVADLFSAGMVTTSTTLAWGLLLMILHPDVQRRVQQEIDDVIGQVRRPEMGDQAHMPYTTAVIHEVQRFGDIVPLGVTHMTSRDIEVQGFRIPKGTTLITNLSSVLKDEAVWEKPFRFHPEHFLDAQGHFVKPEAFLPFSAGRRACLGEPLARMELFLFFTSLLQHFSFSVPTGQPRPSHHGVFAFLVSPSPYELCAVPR
- Procedure Text: Human liver microsomal cytochrome P450 inhibition assay, Protocol B
- Assay type: in vitro ADME
- Experimental Parameters: pH 7.4; at 30 μM; solvent condition B (0.30% DMSO+0.68% acetonitrile); human liver microsomes; probe dextromethorphan
Quantity: inhibition at 10 min, 30 µM

Consider the compound CC(=O)c1ccc(C2=NCc3ccc(Cl)cc3-n3cccc32)cc1 [Compound 18] and give its measured inhibition at 10 min, 30 µM.
40 to 45%

* * *

- Test system: Mucor circinelloides IHEM21105
- Procedure Text: Antifungal activity in vitro (resazurin susceptibility screen), Inf. L
- Type: cell-based
- Experimental Parameters: 27 °C, 48 hours, resa time 17 hours, read-out: Inf. L pIC50 (converted)
Quantity: IC50

CC(=O)c1ccc(C2=NCc3c(F)cc(F)cc3-n3cccc32)cc1 > 63.1 µM
CC(=O)c1cc(C2=NCc3c(Cl)cccc3-n3cccc32)ccc1F > 63.1 µM

Value wanted: IC50 (Mucor circinelloides IHEM21105) of entry CC(=O)c1ccc(C2=NCc3ccc(Cl)cc3-n3cccc32)cc1
> 63.1 µM

* * *

- System: Sporothrix schenkii B62482
- Procedure Text: Antifungal activity in vitro (resazurin susceptibility screen), Inf. A
- Type: cell-based
- Experimental Parameters: Sporothrix schenkii B62482; 27 °C, 4 days, resa time 24 hours; highest in-test concentration 64 μM
Recorded Inf. A pIC50 by entry

Answered examples (8):
Molecule	Inf. A pIC50
Cl.OCCc1ccc(C2NCc3c(Cl)ccc(Cl)c3-n3cccc32)cc1 (stereo not drawn)	<4.2
Br.CC(=O)c1ccc(C2NCc3c(Cl)cccc3-n3cccc32)cc1 (stereo not drawn)	4.7
CC(=O)c1ccc(C2NCc3c(ccc(Cl)c3Cl)-n3cccc32)cc1.Cl (stereo not drawn)	5.0
Cl.OCCc1ccc(C2NCc3c(ccc(Cl)c3Cl)-n3cccc32)cc1 (stereo not drawn)	4.8
CC(=O)c1cccc(C2NCc3c(Cl)cc(Cl)cc3-n3cccc32)c1.Cl (stereo not drawn)	<4.2
CC(=O)c1ccc(C2=NCc3c(ccc(Cl)c3Cl)-n3cccc32)cc1.Cl	<4.2
Cl.OCCc1ccc(C2NCc3c(Cl)cccc3-n3cccc32)cc1 (stereo not drawn)	<4.2
CC(=O)c1ccc(C2NCc3c(Cl)cc(Cl)cc3-n3cccc32)cc1.Cl (stereo not drawn)	<4.2

--- query ---
Find the recorded Inf. A pIC50 belonging to CC(O)c1ccc(C2NCc3c(ccc(Cl)c3Cl)-n3cccc32)cc1.Cl (stereo not drawn) and report it.
<4.2

* * *

- Test system: Trichophyton rubrum B68183
- Procedure Text: Antifungal activity in vitro (resazurin susceptibility screen), Inf. C
- Format: cell-based
- Experimental Parameters: Trichophyton rubrum B68183; 27 °C, 7 days, resa time 24 hours; read-out: Inf. C pIC50 (converted)
Assign a class from recorded IC50; defined classes: range A (below 100 nM), range B (100 nM to below 2000 nM), range C (2000 nM or more)

Molecule	Assigned Label
CC(=O)c1ccc(C2NCc3c(Cl)cccc3-n3cccc32)cc1.Cl (stereo not shown) [Compound 5]	range B

Quick check: band for CC(=O)c1ccc(C2NCc3cc(Cl)cc(Cl)c3-n3cccc32)cc1.Cl (stereo not shown) [Compound 14]
range B

In plain terms, what class is CC(=O)c1cccc(C2=NCc3c(Cl)cccc3-n3cccc32)c1 [Compound 16] ?
range A

Which category does the recorded IC50 put OCCc1ccc(C2NCc3c(Cl)cc(Cl)cc3-n3cccc32)cc1 (stereo not shown) [Compound 34] in?
range C

Band for the recorded IC50 of CC(=O)c1cccc(C2NCc3c(Cl)cccc3-n3cccc32)c1 (stereo not shown) [Compound 4] ?
range C

Returns: class label. Input: CC(=O)c1cc(C2=NCc3c(Cl)cc(Cl)cc3-n3cccc32)ccc1F [Compound 23]
range C

Into which bin does this molecule go? CC(=O)c1ccc(C2=NCc3c(Cl)ccc(Cl)c3-n3cccc32)cc1 [Compound 25]
range C

Class (by measured IC50) for CC(=O)c1ccc(C2=NCc3cccc(Cl)c3-n3cccc32)cc1 [Compound 15]
range B

Which category does the recorded IC50 put CC(=O)c1cc(C2=NCc3c(Cl)cccc3-n3cccc32)ccc1F [Compound 19] in?
range B

Exam item: assign CS(=O)(=O)c1ccc(C2=NCc3c(F)cccc3-n3cccc32)cc1 [Compound 29] to the correct category.
range C

Quick check: band for CS(=O)(=O)c1cccc(C2=NCc3c(Cl)cc(Cl)cc3-n3cccc32)c1 [Compound 31]
range C

* * *

- System Tested: CYP1A2 (Homo sapiens, UniProt P05177)
- Sequence (P05177 1-516): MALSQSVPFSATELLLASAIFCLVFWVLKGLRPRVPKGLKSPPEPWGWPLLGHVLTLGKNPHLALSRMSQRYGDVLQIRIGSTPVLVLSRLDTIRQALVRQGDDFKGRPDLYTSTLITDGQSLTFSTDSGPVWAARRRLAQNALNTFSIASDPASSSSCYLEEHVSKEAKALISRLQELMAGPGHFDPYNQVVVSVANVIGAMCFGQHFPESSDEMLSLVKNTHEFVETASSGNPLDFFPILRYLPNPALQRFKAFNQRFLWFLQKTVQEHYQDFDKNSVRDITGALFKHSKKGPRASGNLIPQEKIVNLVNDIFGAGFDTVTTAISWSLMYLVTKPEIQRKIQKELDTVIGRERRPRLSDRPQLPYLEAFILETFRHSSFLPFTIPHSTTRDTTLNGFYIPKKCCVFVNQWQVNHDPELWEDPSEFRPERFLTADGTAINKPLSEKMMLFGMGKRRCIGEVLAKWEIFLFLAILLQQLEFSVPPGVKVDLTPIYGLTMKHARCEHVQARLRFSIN
- Procedure Text: Cytochrome P450 inhibition, Protocol A, cDNA expressed proteins, fluorogenic substrate
- Assay type: in vitro ADME
- Experimental Parameters: % inhibition at 10 μM; substrate CEC; cDNA expressed protein
Entries annotated with measured hCYP1A2_CEC_Pct_Inh
# value in %; strip the unit string

Worked cases, hCYP1A2_CEC_Pct_Inh given:
Compound	System Tested	Unit Abbrev	hCYP1A2_CEC_Pct_Inh
CC(=O)c1ccc(C2=NCc3c(Cl)cc(Cl)cc3-n3cccc32)cc1 [Compound 22]	CYP1A2 (Homo sapiens, UniProt P05177)	%	20
CC(=O)c1ccc(C2=NCc3cc(Cl)cc(Cl)c3-n3cccc32)cc1 [Compound 26]	CYP1A2 (Homo sapiens, UniProt P05177)	%	34
CC(=O)c1ccc(C2NCc3c(Cl)cccc3-n3cccc32)cc1.Cl (centres unmarked)	CYP1A2 (Homo sapiens, UniProt P05177)	%	12
CC(=O)c1ccc(C2=NCc3ccc(Cl)cc3-n3cccc32)cc1 [drawing 86]	CYP1A2 (Homo sapiens, UniProt P05177)	%	21
CS(=O)(=O)c1ccc(C2=NCc3c(Cl)cccc3-n3cccc32)cc1 [drawing 90]	CYP1A2 (Homo sapiens, UniProt P05177)	%	5
CC(=O)c1ccc(C2=NCc3c(Cl)cccc3-n3cccc32)cc1 [drawing 88]	CYP1A2 (Homo sapiens, UniProt P05177)	%	33
CC(=O)c1ccc(C2=NCc3c(F)cc(F)cc3-n3cccc32)cc1 [Compound 24]	CYP1A2 (Homo sapiens, UniProt P05177)	%	18
CC(=O)c1cccc(C2=NCc3c(Cl)cccc3-n3cccc32)c1 [Compound 16]	CYP1A2 (Homo sapiens, UniProt P05177)	%	55

Quick one: hCYP1A2_CEC_Pct_Inh for CC(=O)c1ccc(C2=NCc3cccc(Cl)c3-n3cccc32)cc1 [Compound 15] ?
38

// query hCYP1A2_CEC_Pct_Inh value for entry CC(=O)c1cc(C2=NCc3c(Cl)cc(Cl)cc3-n3cccc32)ccc1F [Compound 23]
17

Find the recorded hCYP1A2_CEC_Pct_Inh belonging to CCc1ccc(C2=NCc3c(Cl)cccc3-n3cccc32)cc1 [drawing 89] and report it.
60
